From: PubChem BioAssay (NCI)

I'd be grateful if you could share measured TGI for these entries.
# Tested on: A498 renal
# METHOD DESCRIPTION: NCI tumour cell line growth inhibition, 48 h
Numbers only, in µM.

Here's what some known entries look like.
>  <COMPOUND>
Cc1ccc(S(=O)(=O)NC(CCC(=O)Nc2ccc(Cl)cc2)C(=O)Nc2ccc(Cl)cc2)cc1 (stereo not given)

>  <ASSAYED SYSTEM>
A498 renal

>  <OBSERVED RESULT>
5.34

$$$$
>  <COMPOUND>
Oc1c(C2=NNC(c3cccs3)C2)ccc2ccccc12 (stereo not given)

>  <ASSAYED SYSTEM>
A498 renal

>  <OBSERVED RESULT>
56.5

$$$$
>  <COMPOUND>
COc1ccc(/C=C2\CN(C(=O)CCN3CCC(=NO)CC3)C/C(=C\c3ccc(OC)cc3)C2=O)cc1

>  <ASSAYED SYSTEM>
A498 renal

>  <OBSERVED RESULT>
3.2

$$$$
>  <COMPOUND>
N#Cc1ccccc1NC(=O)C(=O)C(C(=O)c1ccccc1-c1ccccc1)C1OC(=O)c2ccccc21 (stereo not given)

>  <ASSAYED SYSTEM>
A498 renal

>  <OBSERVED RESULT>
45.2

$$$$
>  <COMPOUND>
CCOC(=O)c1cnc(SCc2ccc(Cl)c(Cl)c2)nc1N1CC1

>  <ASSAYED SYSTEM>
A498 renal

>  <OBSERVED RESULT>
14.4

$$$$
>  <COMPOUND>
CCOC(=O)c1cccc(NC(=O)CBr)c1

>  <ASSAYED SYSTEM>
A498 renal

>  <OBSERVED RESULT>
14.7

$$$$
>  <COMPOUND>
CCC1(OC(=O)CN2CCN(CCO)CC2)C(=O)OCc2c1cc1n(c2=O)Cc2cc3ccccc3nc2-1 (stereo not given)

>  <ASSAYED SYSTEM>
A498 renal

>  <OBSERVED RESULT>
1.78

$$$$
>  <COMPOUND>
CCOC(=O)CCC(NC(=O)c1ccc(N=Cc2nc3cc(C(F)(F)F)ccc3nc2-c2ccccc2)cc1)C(=O)OCC (stereo not given)

>  <ASSAYED SYSTEM>
A498 renal

>  <OBSERVED RESULT>
75

$$$$
>  <COMPOUND>
COc1cc2cc(Oc3ccc(NC(=O)Nc4cccc(C(F)(F)F)c4)cc3)c(C)nc2cc1OCCN1CCCCC1

>  <ASSAYED SYSTEM>
A498 renal

>  <OBSERVED RESULT>
2.9

$$$$

**Query** Entry under review: CC(C)(C)c1cc(C(=O)/C=C/c2ccc(O)c(O)c2O)cc(C(C)(C)C)c1O . Reported TGI?
**Result** 34.4
